- TESTED SYSTEM: T1, Dpo1 exo- (SsoDpo1, B-family DNA polymerase) (Sulfolobus solfataricus, UniProt P26811 1-882, D231A;D318A)
- T1 sequence: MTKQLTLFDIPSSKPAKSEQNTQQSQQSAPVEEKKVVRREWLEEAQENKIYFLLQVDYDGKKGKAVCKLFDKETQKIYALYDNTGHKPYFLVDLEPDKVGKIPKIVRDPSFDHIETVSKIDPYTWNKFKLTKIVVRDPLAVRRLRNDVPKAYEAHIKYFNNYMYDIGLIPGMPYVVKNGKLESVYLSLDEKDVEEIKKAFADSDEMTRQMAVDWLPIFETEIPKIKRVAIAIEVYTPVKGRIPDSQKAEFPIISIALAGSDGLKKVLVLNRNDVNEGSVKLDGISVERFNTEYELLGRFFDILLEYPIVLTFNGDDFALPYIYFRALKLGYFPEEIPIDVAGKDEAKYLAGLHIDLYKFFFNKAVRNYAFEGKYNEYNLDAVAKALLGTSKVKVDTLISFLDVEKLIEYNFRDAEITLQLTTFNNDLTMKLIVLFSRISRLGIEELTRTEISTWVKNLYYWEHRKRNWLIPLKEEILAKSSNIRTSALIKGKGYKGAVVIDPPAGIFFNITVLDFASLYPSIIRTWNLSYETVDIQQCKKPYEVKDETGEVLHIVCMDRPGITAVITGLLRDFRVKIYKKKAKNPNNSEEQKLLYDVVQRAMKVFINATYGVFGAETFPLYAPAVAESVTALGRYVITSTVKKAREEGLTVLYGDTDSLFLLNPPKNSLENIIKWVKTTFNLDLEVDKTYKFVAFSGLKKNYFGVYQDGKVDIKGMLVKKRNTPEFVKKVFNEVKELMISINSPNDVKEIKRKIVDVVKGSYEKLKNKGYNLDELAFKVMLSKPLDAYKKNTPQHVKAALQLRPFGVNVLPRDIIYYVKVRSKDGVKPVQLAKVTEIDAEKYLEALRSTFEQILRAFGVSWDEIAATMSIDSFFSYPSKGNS
- PROCEDURE SUMMARY: fluorescence anisotropy
pKd: −log10 of the molar value.

{"BINDER": "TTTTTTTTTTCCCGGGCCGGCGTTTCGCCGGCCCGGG (structured_DNA) [37-nt hairpin primer-template, 5'-Cy3]", "pKd": 6.84}
